For reference, pIC50 measured on SIK2 (Homo sapiens, UniProt Q9H0K1):
One number for each entry, as −log10 of the molar value.

[
  {
    "compound": "Cc1ccc(Nc2ccc3c(c2)ncn3-c2ccc(CO)c(-n3nc(C#N)cc3C)n2)nn1 [Example 270, formic acid]",
    "pIC50": 9.10
  },
  {
    "compound": "Cc1ccc(Nc2ccc3c(c2)ncn3-c2ccc(C(C)O)c(-c3cc(OC(F)F)ncc3C)n2)nn1 (stereo not shown) [Example 167]",
    "pIC50": 9.05
  },
  {
    "compound": "Cc1ccc(Nc2ccc3c(c2)ncn3-c2ccc(C(C)O)c(-n3nc(C(F)F)nc3C)n2)nn1 (stereo not shown) [Example 344]",
    "pIC50": 7.69
  },
  {
    "compound": "Cc1ccc(Nc2ccc3c(c2)ncn3-c2ccc(C(C)O)c(-c3cc(F)cnc3Cl)n2)nn1 (stereo not shown) [Example 174, formic acid]",
    "pIC50": 6.82
  },
  {
    "compound": "Cc1ccc(Nc2ccc3c(c2)ncn3-c2ccc(C(O)C(F)F)c(-n3nc(C#N)cc3C)n2)nn1 (stereo not shown) [Example 198]",
    "pIC50": 8.15
  },
  {
    "compound": "Cc1cc(C#N)nn1-c1nc(-n2cnc3ccc(N4CCCC45COC5)cc32)ccc1C(C)O (stereo not shown) [Example 295]",
    "pIC50": 7.71
  }
]

The reported SIK2 (Homo sapiens, UniProt Q9H0K1) pIC50 of Cc1ccc(Nc2cc3c(cc2F)ncn3-c2ccc(C(C)O)c(-n3nc(C(F)F)cc3C)n2)c(F)c1F (stereo not shown) [Example 362] is 8.06

* * *

study system: UniProt:Q9Y2K2
Sequence (Q9Y2K2 whole entry): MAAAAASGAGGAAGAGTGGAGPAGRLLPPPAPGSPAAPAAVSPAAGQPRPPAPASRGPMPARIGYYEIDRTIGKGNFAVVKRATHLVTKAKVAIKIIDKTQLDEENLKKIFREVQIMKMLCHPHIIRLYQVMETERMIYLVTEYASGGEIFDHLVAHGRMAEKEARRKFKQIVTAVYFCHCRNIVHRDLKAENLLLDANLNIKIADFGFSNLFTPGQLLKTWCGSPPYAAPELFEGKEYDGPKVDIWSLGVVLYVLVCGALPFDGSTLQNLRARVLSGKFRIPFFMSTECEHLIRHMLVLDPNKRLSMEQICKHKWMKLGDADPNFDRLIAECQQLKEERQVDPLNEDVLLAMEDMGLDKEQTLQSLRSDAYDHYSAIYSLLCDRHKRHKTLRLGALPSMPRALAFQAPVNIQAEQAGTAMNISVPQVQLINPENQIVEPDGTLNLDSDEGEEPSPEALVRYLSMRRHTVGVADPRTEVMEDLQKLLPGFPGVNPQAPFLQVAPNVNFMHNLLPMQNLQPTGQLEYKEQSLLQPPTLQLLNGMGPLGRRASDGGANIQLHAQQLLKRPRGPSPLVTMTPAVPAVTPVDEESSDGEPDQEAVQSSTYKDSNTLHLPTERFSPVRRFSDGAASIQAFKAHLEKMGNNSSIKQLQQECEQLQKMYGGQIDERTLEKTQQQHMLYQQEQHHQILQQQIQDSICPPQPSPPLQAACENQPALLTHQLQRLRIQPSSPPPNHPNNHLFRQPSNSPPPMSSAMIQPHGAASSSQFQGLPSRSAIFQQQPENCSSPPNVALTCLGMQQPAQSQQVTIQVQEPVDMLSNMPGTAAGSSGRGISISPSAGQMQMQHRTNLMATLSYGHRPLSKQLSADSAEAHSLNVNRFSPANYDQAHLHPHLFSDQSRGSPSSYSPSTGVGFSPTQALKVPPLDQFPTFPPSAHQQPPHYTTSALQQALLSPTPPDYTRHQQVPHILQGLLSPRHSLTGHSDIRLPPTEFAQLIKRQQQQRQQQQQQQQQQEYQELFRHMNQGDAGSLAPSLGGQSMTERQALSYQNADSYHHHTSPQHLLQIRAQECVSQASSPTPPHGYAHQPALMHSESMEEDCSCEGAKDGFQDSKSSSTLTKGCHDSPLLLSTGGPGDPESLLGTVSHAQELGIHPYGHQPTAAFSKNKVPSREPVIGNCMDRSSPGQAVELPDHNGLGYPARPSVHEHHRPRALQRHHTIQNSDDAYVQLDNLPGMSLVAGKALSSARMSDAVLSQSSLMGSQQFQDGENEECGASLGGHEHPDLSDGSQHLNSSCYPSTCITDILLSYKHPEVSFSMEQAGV
What IC50 was measured for each of the following?
Answers are plain numbers, in nM.

Examples with answers:
[
  {
    "compound": "Cc1ccc(Nc2ccc3ncn(-c4ccc(C(C)O)c(-n5cc(C#N)c(C)n5)n4)c3c2)nn1 (stereo not drawn) [Example 178]",
    "units text": "nM",
    "measured result": 10000
  },
  {
    "compound": "COc1cc2ncn(-c3ccc([C@@H](C)O)c(-c4ccc(C#N)cc4)n3)c2cc1OC [Example 40]",
    "units text": "nM",
    "measured result": 1660
  },
  {
    "compound": "Cc1cc(C#N)nn1-c1nc(-n2cnc3cc(Nc4nncc5c4OCCN5C)ccc32)ccc1C(C)O (stereo not drawn) [Example 310]",
    "units text": "nM",
    "measured result": 0.5
  },
  {
    "compound": "Cc1cc(C(=O)N(C)C)c(Nc2ccc3c(c2)ncn3-c2ccc(CO)c(-n3nc(C(F)F)cc3C(F)F)n2)nn1 [Example 348]",
    "units text": "nM",
    "measured result": 37.1
  },
  {
    "compound": "Cc1ccc(Nc2ccc3c(c2)ncn3-c2ccc(C(C)O)c(N3CCN(CC(F)(F)F)C(=O)C3)n2)nn1 (stereo not drawn) [Example 136]",
    "units text": "nM",
    "measured result": 3.9
  }
]

For every item below, please supply its IC50.
1. COc1nn(C)cc1-c1ccc2c(c1)ncn2-c1ccc(C(C)O)c(-n2nc(C#N)cc2C)n1 (stereo not drawn) [Example 334]
2. Cc1ccc(Nc2ccc3c(c2)ncn3-c2ccc(C(C)O)c(-c3cn(C4CC4(F)F)nc3C)n2)nn1 (stereo not drawn) [Example 277]
3. Cc1ccc(Nc2ccc3c(c2)ncn3-c2ccc(C(C)O)c(-c3cnn(CC4CC4)c3C)n2)nn1 (stereo not drawn) [Example 272, formic acid]
4. Cc1ccc(Nc2ccc3c(c2)ncn3-c2ccc(C(C)O)c(-c3c(C)noc3C)n2)nn1 (stereo not drawn) [Example 159]

Outgoing:
1: 3.4; 2: 1.8; 3: 1.2; 4: 70.2

For every item below, please supply its IC50.
1. Cc1ccc(Nc2ccc3c(c2)ncn3-c2ccc(C(C)O)c(-c3cnn4c3C(=O)NCC4)n2)nn1 (stereo not drawn) [Example 165]
2. CC(O)c1ccc(-n2cnc3cc(OCCN4CCOCC4)ccc32)nc1Nc1ccccc1 (stereo not drawn) [Example 55]
3. COC1CN(C(=O)c2ccc(Nc3ccc4c(c3)ncn4-c3ccc(C(C)O)c(-n4nc(C#N)cc4C)n3)nn2)C1 (stereo not drawn) [Example 191]
4. Cc1ccc(Nc2cc3ncn(-c4ccc([C@@H](C)O)c(-n5nc(OC(F)F)cc5C)n4)c3cc2OC2COC2)nn1 [Example 384]
5. Cc1nnc(Nc2cc3c(cc2F)ncn3-c2ccc(C(C)O)c(-n3nc(C#N)cc3C)n2)o1 (stereo not drawn) [Example 376]
6. Cc1ccc(Oc2ccc3c(c2)ncn3-c2ccc(C(C)O)c(-c3cn(CC(F)(F)F)nc3C)n2)nn1 (stereo not drawn) [Example 351]

Outgoing:
1. 95.5
2. 130
3. 2.2
4. 80.2
5. 42
6. 9.3

* * *

For reference, pIC50 measured on SIK2 (Homo sapiens, UniProt Q9H0K1):
Numbers only, as −log10 of the molar value.

[
  {
    "molecule": "Cc1cc(C#N)nn1-c1nc(-n2cnc3cc(Nc4nncc5c4OCCN5C)ccc32)ccc1C(C)O (stereo not drawn)",
    "pIC50": 8.96
  },
  {
    "molecule": "Cc1ccc(Nc2cc3ncn(-c4ccc(C(C)O)c(-n5nc(C#N)cc5C)n4)c3cc2OCCN(C)C)nn1 (stereo not drawn)",
    "pIC50": 8.41
  },
  {
    "molecule": "Cc1ccc(Nc2cc3ncn(-c4ccc(C(C)O)c(-c5cn(CC6CC6)nc5C)n4)c3cc2F)nn1 (stereo not drawn)",
    "pIC50": 9.05
  },
  {
    "molecule": "COc1cc2c(cc1Nc1ccc(C)nn1)ncn2-c1ccc(C(C)O)c(-n2nc(C#N)cc2C)n1 (stereo not drawn)",
    "pIC50": 9.52
  },
  {
    "molecule": "Cc1cc(C#N)nn1-c1nc(-n2cnc3cc(Nc4cnn(C5CNC5)c4)ccc32)ccc1C(C)O (stereo not drawn)",
    "pIC50": 9.00
  },
  {
    "molecule": "Cc1ccc(Nc2cc3ncn(-c4ccc([C@@H](C)O)c(-n5nc(C#N)cc5C)n4)c3cc2OC(F)F)nn1",
    "pIC50": 7.61
  }
]

For every item below, please supply its pIC50.
1. Cc1cc(C#N)nn1-c1nc(-n2cnc3cc(N4CCN(C5COC5)CC4)c(Br)cc32)ccc1C(C)O (stereo not drawn)
2. Cc1cc(C#N)nn1-c1nc(-n2cnc3cc(Nc4ccc(OC(F)F)nn4)ccc32)ccc1C(C)O (stereo not drawn)
3. Cc1ccc(Nc2ccc3ncn(-c4ccc(C(C)O)c(-n5cc(C#N)c(C)n5)n4)c3c2)nn1 (stereo not drawn)
4. Cc1ccc(Nc2ccc3c(c2)ncn3-c2ccc(C(C)O)c(-n3cc(C)c(C#N)n3)n2)nn1 (stereo not drawn)
5. Cc1ccc(Nc2ccc3c(c2)ncn3-c2ccc(C(C)O)c(-c3cn(CC(F)F)nc3C)n2)nn1 (stereo not drawn)
6. COCC(O)c1ccc(-n2cnc3cc(Nc4ccc(C)nn4)ccc32)nc1-n1nc(C#N)cc1C (stereo not drawn)
7. Cc1ccc(Nc2ccc3c(c2)ncn3-c2ccc(C(C)O)c(-n3nc(C#N)c(C)c3C)n2)nn1 (stereo not drawn)

Outgoing:
1: 6.67; 2: 8.64; 3: 5.20; 4: 8.68; 5: 8.96; 6: 8.03; 7: 9.52

For every item below, please supply its pIC50.
1. Cc1cc(C#N)nn1-c1nc(-n2cnc3cc(-c4ccc5c(n4)C(=O)N(C)C5)ccc32)ccc1C(C)O (stereo not drawn)
2. Cc1ccc(Nc2ccc3c(c2)ncn3-c2ccc(C(C)O)c(-c3cnn(CC(C)(F)F)c3C)n2)nn1 (stereo not drawn)

Outgoing:
1: 7.24; 2: 8.68

* * *

study system: SIK1 (Homo sapiens, UniProt P57059)
Sequence (P57059 whole entry): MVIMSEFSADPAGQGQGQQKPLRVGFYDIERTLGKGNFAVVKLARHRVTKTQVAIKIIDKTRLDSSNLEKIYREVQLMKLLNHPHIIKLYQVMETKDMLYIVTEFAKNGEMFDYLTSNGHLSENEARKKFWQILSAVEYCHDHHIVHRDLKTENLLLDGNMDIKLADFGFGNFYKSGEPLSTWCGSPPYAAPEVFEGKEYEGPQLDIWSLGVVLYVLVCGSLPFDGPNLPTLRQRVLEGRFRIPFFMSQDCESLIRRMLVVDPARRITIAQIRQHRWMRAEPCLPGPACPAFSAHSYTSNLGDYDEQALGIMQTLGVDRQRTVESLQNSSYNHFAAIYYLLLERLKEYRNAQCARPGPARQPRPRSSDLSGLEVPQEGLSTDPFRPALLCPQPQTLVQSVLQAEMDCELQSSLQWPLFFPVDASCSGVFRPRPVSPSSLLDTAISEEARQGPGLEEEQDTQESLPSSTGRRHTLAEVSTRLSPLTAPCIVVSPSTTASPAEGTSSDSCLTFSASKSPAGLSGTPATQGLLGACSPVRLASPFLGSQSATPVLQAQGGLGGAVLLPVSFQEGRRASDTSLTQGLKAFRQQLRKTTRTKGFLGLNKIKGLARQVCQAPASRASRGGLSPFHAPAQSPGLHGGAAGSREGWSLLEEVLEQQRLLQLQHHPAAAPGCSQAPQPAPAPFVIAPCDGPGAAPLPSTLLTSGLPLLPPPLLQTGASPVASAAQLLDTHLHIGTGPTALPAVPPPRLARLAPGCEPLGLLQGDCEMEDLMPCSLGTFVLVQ
Classification by IC50 | ranges: lower bin (below 90 nM), middle bin (90 nM to below 800 nM), upper bin (800 nM or more)

Study these solved cases before continuing.
[
  {
    "molecule": "Cc1ccc(Nc2ccc3c(c2)ncn3-c2ccc(C(O)C(F)F)c(-n3nc(C#N)cc3C)n2)nn1 (centres unmarked)",
    "group label": "middle bin"
  },
  {
    "molecule": "Cc1ccc(Nc2ccc3c(c2)ncn3-c2ccc(C(C)O)c(-c3cn(C4CC4(F)F)nc3C)n2)nn1 (centres unmarked)",
    "group label": "middle bin"
  },
  {
    "molecule": "Cc1cc(C#N)nn1-c1nc(-n2cnc3cc(NC(=O)C4(F)CC4)ccc32)ccc1C(C)O (centres unmarked)",
    "group label": "lower bin"
  },
  {
    "molecule": "COc1cc2ncn(-c3ccc([C@H](C)O)c(-c4cccc(C#N)c4)n3)c2cc1OC",
    "group label": "lower bin"
  },
  {
    "molecule": "Cc1ccc(Nc2ccc3ncn(-c4ccc(C(C)O)c(N5CCC(C)(C#N)C5)n4)c3c2)nn1 (centres unmarked)",
    "group label": "upper bin"
  },
  {
    "molecule": "Cc1ccc(Nc2cc3c(cc2F)ncn3-c2ccc(C(C)O)c(-n3nc(C(F)F)cc3C)n2)c(F)c1F (centres unmarked)",
    "group label": "lower bin"
  }
]

Incoming: Which category fits this record: Cc1ccc(Nc2cc3ncn(-c4ccc(C(C)O)c(-n5nc(C(F)F)cc5C(F)F)n4)c3cc2F)nn1 (centres unmarked)
Outgoing: middle bin

Incoming: Which category fits this record: Cc1cc(C#N)nn1-c1nc(-n2cnc3cc(N4CCN(C5COC5)CC4)ccc32)ccc1C(C)O (centres unmarked)
Outgoing: middle bin

Incoming: Which category fits this record: Cc1ccc(Nc2ccc3c(c2)ncn3-c2ccc(C(C)O)c(-c3ccnn3C3CC3(F)F)n2)nn1 (centres unmarked)
Outgoing: upper bin

Incoming: Which category fits this record: Cc1ccc(Nc2ccc3c(c2)ncn3-c2ccc(C(C)O)c(-n3nc(C)cc3C)n2)nn1 (centres unmarked)
Outgoing: upper bin
